Assay: In vitro rat microsomal stability assay
Type: in vitro ADME, rat (Sprague-Dawley)
Settings: Sprague-Dawley, rat, microsomes, 0.5 h, 0.5 μM, pH 7.4
Lab note: compare RAT MICROSOMAL STABILITY (% REMAINING AFTER 30 MINUTES) against 60%. Equal or greater, write Fulfilled. Smaller, write Not fulfilled.

Example entries and their recorded answers appear below.
| Compound | Discrete label |
| --- | --- |
| O=C1CC(c2cc(C(F)(F)F)ccn2)([C@H](O)c2ccccn2)C1 [Example 277] | Fulfilled |
| Cc1ccccc1CC1(C(O)c2ccccn2)CCC1 (stereo not drawn) [Example 253] | Not fulfilled |

Problem: Decide: is the reported value of RAT MICROSOMAL STABILITY (% REMAINING AFTER 30 MINUTES) for OC(c1ccccn1)C1(c2cccnc2)CCC1 (stereo not drawn) [Example 20] equal to or greater than 60%?
Result: Fulfilled

Problem: Decide: is the reported value of RAT MICROSOMAL STABILITY (% REMAINING AFTER 30 MINUTES) for OC(C1CCCc2cccnc21)C1(c2ccccc2OC(F)(F)F)CCC1 (stereo not drawn) [Example 192] equal to or greater than 60%?
Result: Not fulfilled

Problem: Decide: is the reported value of RAT MICROSOMAL STABILITY (% REMAINING AFTER 30 MINUTES) for O=C1CC(c2cccc(OC(F)(F)F)c2)([C@@H](O)c2ccccn2)C1 (single isomer, unassigned) [Example 257] equal to or greater than 60%?
Result: Not fulfilled

Problem: Decide: is the reported value of RAT MICROSOMAL STABILITY (% REMAINING AFTER 30 MINUTES) for OC1CC(c2ccc(Cl)c(Cl)c2)(C(O)c2ccccn2)C1 (single isomer, unassigned) [Example 118] equal to or greater than 60%?
Result: Fulfilled

Problem: Decide: is the reported value of RAT MICROSOMAL STABILITY (% REMAINING AFTER 30 MINUTES) for OC(c1ccccn1)C1(c2ccc(OC(F)(F)F)cc2)CCC1 (stereo not drawn) [Example 12] equal to or greater than 60%?
Result: Not fulfilled

Problem: Decide: is the reported value of RAT MICROSOMAL STABILITY (% REMAINING AFTER 30 MINUTES) for OC(c1ccccn1)C1(c2cccc(Oc3ccccc3)c2)CCC1 (stereo not drawn) [Example 23] equal to or greater than 60%?
Result: Not fulfilled

Problem: Decide: is the reported value of RAT MICROSOMAL STABILITY (% REMAINING AFTER 30 MINUTES) for OC(C1CCCc2cccnc21)C1(c2ccc(OC(F)(F)F)cc2)CCC1 (single isomer, unassigned) [Example 178] equal to or greater than 60%?
Result: Not fulfilled

Problem: Decide: is the reported value of RAT MICROSOMAL STABILITY (% REMAINING AFTER 30 MINUTES) for OC(C1CCc2cccnc21)C1(c2ccc(F)c(F)c2)CCC1 (stereo not drawn) [Example 172] equal to or greater than 60%?
Result: Not fulfilled

Problem: Decide: is the reported value of RAT MICROSOMAL STABILITY (% REMAINING AFTER 30 MINUTES) for C[C@]1(O)C[C@@](c2cccc(OC(F)(F)F)c2)([C@H](O)c2ccccn2)C1 [Example 262] equal to or greater than 60%?
Result: Not fulfilled

Problem: Decide: is the reported value of RAT MICROSOMAL STABILITY (% REMAINING AFTER 30 MINUTES) for OC(c1ccccn1)C1(c2cccc(C(F)(F)F)c2)CCCO1 (single isomer, unassigned) [Example 107] equal to or greater than 60%?
Result: Not fulfilled

Problem: Decide: is the reported value of RAT MICROSOMAL STABILITY (% REMAINING AFTER 30 MINUTES) for OC(CC1(c2cccc(C(F)(F)F)c2)CCC1)c1ccccn1 (stereo not drawn) [Example 74] equal to or greater than 60%?
Result: Not fulfilled

Problem: Decide: is the reported value of RAT MICROSOMAL STABILITY (% REMAINING AFTER 30 MINUTES) for OC(C1CCc2cccnc21)C1(c2ccccc2C(F)(F)F)CCC1 (stereo not drawn) [Example 197] equal to or greater than 60%?
Result: Not fulfilled

Problem: Decide: is the reported value of RAT MICROSOMAL STABILITY (% REMAINING AFTER 30 MINUTES) for OC(c1ccccn1)C1(c2cccc(F)c2)CCC1 (stereo not drawn) [Example 2] equal to or greater than 60%?
Result: Not fulfilled

Problem: Decide: is the reported value of RAT MICROSOMAL STABILITY (% REMAINING AFTER 30 MINUTES) for COC1CC(c2ccc(Cl)c(Cl)c2)(C(O)c2ccccn2)C1 (stereo not drawn) [Example 150] equal to or greater than 60%?
Result: Not fulfilled

Problem: Decide: is the reported value of RAT MICROSOMAL STABILITY (% REMAINING AFTER 30 MINUTES) for OC(C1CCCc2cccnc21)C1(c2cccc(C(F)(F)F)c2)CCC1 (single isomer, unassigned) [Example 179] equal to or greater than 60%?
Result: Not fulfilled
